- system under test: furin, P09958;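 further: purified furin at 1:10 enzyme:substrate in 50 mM HEPES pH 7.5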
- Sequence (P09958 whole entry): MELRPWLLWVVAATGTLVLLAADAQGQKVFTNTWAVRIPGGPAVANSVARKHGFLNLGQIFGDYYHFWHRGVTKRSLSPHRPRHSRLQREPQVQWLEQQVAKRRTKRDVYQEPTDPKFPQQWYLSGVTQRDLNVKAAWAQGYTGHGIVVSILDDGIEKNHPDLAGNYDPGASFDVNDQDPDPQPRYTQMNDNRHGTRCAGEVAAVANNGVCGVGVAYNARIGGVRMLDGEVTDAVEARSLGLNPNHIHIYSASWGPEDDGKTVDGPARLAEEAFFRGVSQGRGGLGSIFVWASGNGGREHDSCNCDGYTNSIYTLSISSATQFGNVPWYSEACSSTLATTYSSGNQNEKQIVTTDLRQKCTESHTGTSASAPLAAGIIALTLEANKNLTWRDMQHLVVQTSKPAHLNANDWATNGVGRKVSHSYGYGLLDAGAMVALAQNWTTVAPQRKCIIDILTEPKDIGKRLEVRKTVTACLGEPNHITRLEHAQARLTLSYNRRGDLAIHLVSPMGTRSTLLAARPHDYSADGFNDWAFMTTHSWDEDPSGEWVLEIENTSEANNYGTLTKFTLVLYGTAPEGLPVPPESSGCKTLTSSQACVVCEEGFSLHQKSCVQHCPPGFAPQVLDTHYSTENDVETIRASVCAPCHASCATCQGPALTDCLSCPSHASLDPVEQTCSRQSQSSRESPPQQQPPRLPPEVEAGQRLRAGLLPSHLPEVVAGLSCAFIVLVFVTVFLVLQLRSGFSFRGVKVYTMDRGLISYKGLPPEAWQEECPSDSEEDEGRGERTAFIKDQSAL
- test summary: furin cleavage Z-score vs untreated control; higher = more cleavage, active = 3.5 or more, inactive = 1 or less, 8 variable residues between constant flanks
- recorded conditions: 15 min
The other results are listed elsewhere or left out. No count for the full screen is at hand.
In this section we review reported furin cleavage Z-score values for a set of sequences.

entry sequence	furin cleavage Z-score
CAAREVPCHRAGNASASA [HC2423]	1.34
CARHRKHSPQAGNASASA [FS-2680]	0.0202 (inactive)
CAVFKRRRRSAGNASASA [FS-1101]	11.3 (active)
CASLLSPRPIAGNASASA [HC736]	-0.642 (inactive)
CAGWLLSPRGAGNASASA [HC208]	-1.63 (inactive)
CASYPCSAHLAGNASASA [HC2489]	-1.17 (inactive)
CAGASRSPRGAGNASASA [FS-237]	4.49 (active)

The reported measurements were obtained from the supplement of paper PMC3545927.
